# TARGET SYSTEM: S1P5 (Homo sapiens, UniProt Q9H228)
# Construct: expressed in transfected cells; host or cells: CHO cells (membranes)
# Sequence (Q9H228 whole entry, species assumed): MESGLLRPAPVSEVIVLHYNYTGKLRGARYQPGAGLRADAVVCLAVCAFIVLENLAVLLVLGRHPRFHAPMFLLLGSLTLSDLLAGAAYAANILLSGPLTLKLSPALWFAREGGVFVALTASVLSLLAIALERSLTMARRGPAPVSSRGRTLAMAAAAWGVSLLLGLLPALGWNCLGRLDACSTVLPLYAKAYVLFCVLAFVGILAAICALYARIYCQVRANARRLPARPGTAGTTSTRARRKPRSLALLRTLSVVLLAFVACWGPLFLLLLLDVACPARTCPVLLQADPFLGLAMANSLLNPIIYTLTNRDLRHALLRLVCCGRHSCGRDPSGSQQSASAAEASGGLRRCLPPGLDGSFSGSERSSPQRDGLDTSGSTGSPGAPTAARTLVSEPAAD
# PROTOCOL TEXT: [35S]-GTPγS functional binding assay on CHO-S1P5 membranes
# Format: biochemical
# RUN PARAMETERS: membranes of CHO cells expressing recombinant S1P5 receptors; measure of S1P5 agonism

{"columns": ["COMPOUND", "TARGET SYSTEM", "EC50"],
 "data": [
  ["O=C(O)C1CCN(C2CCc3cc(CCc4cccc(F)c4)ccc32)CC1 (single isomer, unassigned) [Compound 26a]", "S1P5 (Homo sapiens, UniProt Q9H228)", "100 to 1000 nM"],
  ["O=C(O)C1CCN(C2CCc3cc(-c4ccc5ocnc5c4)ccc32)CC1 (single isomer, unassigned) [Compound 42]", "S1P5 (Homo sapiens, UniProt Q9H228)", "1000 to 10000 nM"],
  ["O=C(O)C1CCN(C2CCc3cc(CCc4c(Cl)cccc4Cl)ccc32)CC1 (single isomer, unassigned) [Compound 22a]", "S1P5 (Homo sapiens, UniProt Q9H228)", "≤ 10 nM"],
  ["O=C(O)C1CCN(C2CCc3cc(-c4cccc5c4CCC5)ccc32)CC1 (single isomer, unassigned) [Compound 45]", "S1P5 (Homo sapiens, UniProt Q9H228)", "100 to 1000 nM"],
  ["COc1cc(OC)cc(-c2ccc3c(c2)CCC3N2CCC(C(=O)O)CC2)c1 (single isomer, unassigned) [Compound 40]", "S1P5 (Homo sapiens, UniProt Q9H228)", "100 to 1000 nM"],
  ["O=C(O)C1CCN(C2CCc3cc(CCc4cccc(F)c4)ccc32)CC1 (single isomer, unassigned) [Compound 26b]", "S1P5 (Homo sapiens, UniProt Q9H228)", "10 to 100 nM"],
  ["O=C(O)C1CCN(C2CCc3cc(-c4ccc5c(c4)CCC5)ccc32)CC1 (single isomer, unassigned) [Compound 44]", "S1P5 (Homo sapiens, UniProt Q9H228)", "10 to 100 nM"]
]}

###

# TARGET SYSTEM: UniProtKB Q9H228
# PROTOCOL TEXT: [35S]-GTPγS functional binding assay on CHO-S1P5 membranes
# RUN PARAMETERS: membranes of CHO cells expressing recombinant S1P5 receptors; measure of S1P5 agonism

{"columns": ["COMPOUND", "EC50"],
 "data": [
  ["O=C(O)C1C2CCC1CN(C1CCc3cc(C#Cc4cccc(F)c4)ccc31)C2 (stereo not shown) [Compound 10]", "100 to 1000 nM"],
  ["O=C(O)C1CCN(C2CCc3cc(C#Cc4c(Cl)cccc4Cl)ccc32)CC1 (stereo not shown) [Compound 1]", "≤ 10 nM"],
  ["O=C(O)C1=CCN(C2CCc3cc(C#Cc4c(Cl)cccc4Cl)ccc32)CC1 (stereo not shown) [Compound 2]", "≤ 10 nM"],
  ["O=C(O)C1CCN(C2CCc3cc(CCc4c(Cl)cccc4Cl)ccc32)CC1 (single isomer, unassigned) [Compound 22b]", "≤ 10 nM"],
  ["O=C(O)[C@]12C[C@H]1CN(C1CCc3cc(C#Cc4c(Cl)cccc4Cl)ccc31)C2 (stereo partly shown) [Compound 15]", "≤ 10 nM"],
  ["O=C(O)C1CN(C2CCc3cc(-c4ccc(C5CC5)c(F)c4)ccc32)C1 (single isomer, unassigned) [Compound 31b]", "≤ 10 nM"],
  ["O=C(O)C1CCN(C2CCc3cc(-c4ccc(C5CC5)c(Cl)c4)ccc32)CC1 (single isomer, unassigned) [Compound 32a]", "100 to 1000 nM"]
]}

###

# TARGET SYSTEM: S1P5 (Homo sapiens, UniProt Q9H228)
# PROTOCOL TEXT: [35S]-GTPγS functional binding assay on CHO-S1P5 membranes
# RUN PARAMETERS: membranes of CHO cells expressing recombinant S1P5 receptors; measure of S1P5 agonism

{"columns": ["COMPOUND", "EC50"],
 "data": [
  ["O=C(O)[C@H]1CCN(C2CCc3cc(-c4ccc(C5CC5)c(F)c4)ccc32)C1 (single isomer, unassigned) [Compound 37b]", "10 to 100 nM"],
  ["O=C(O)[C@H]1CCN(C2CCc3cc(-c4ccc(C5CC5)c(F)c4)ccc32)C1 (single isomer, unassigned) [Compound 37a]", "100 to 1000 nM"],
  ["O=C(O)C1CCCN(C2CCc3cc(-c4ccc(C5CC5)c(Cl)c4)ccc32)C1 (stereo not shown)", "10 to 100 nM"],
  ["O=C(O)C1CC2(C1)CN(C1CCc3cc(-c4ccc(C5CC5)c(Cl)c4)ccc31)C2 (stereo not shown)", "10 to 100 nM"],
  ["O=C(O)[C@@H]1CCN(C2CCc3cc(-c4ccc(C5CC5)c(F)c4)ccc32)C1 (single isomer, unassigned) [Compound 36a]", "≤ 10 nM"],
  ["O=C(O)C1CCN(C2CCc3cc(C#Cc4ccccc4F)ccc32)CC12CC2 (stereo not shown)", "10 to 100 nM"],
  ["O=C(O)[C@@H]1CCCCN1C1CCc2cc(C#Cc3cccc(F)c3)ccc21 (single isomer, unassigned) [Compound 8a]", "100 to 1000 nM"],
  ["O=C(O)[C@@H]1CCCN(C2CCc3cc(C#Cc4cccc(F)c4)ccc32)C1 (single isomer, unassigned) [Compound 7a]", "10 to 100 nM"],
  ["O=C(Cc1c(Cl)cccc1Cl)c1ccc2c(c1)CCC2N1CCC(C(=O)O)CC1 (single isomer, unassigned)", "10 to 100 nM"],
  ["O=C(O)C1CCN(C2CCc3cc(C#Cc4cccc(F)c4)ccc32)CC1 (single isomer, unassigned) [Compound 4b]", "≤ 10 nM"],
  ["O=C(O)[C@@H]1[C@@H]2CN(C3CCc4cc(C#Cc5cccc(F)c5)ccc43)C[C@@H]21 (stereo partly shown)", "10 to 100 nM"],
  ["O=C(O)C1CCN(C2CCc3cc(-c4ccc5c(c4)CCO5)ccc32)CC1 (single isomer, unassigned)", "100 to 1000 nM"],
  ["O=C(O)[C@H]1CCN(C2CCc3cc(-c4ccc(C5CC5)c(Cl)c4)ccc32)C1 (single isomer, unassigned) [Compound 35a]", "10 to 100 nM"],
  ["O=C(O)C1(F)CCN(C2CCc3cc(C#Cc4c(Cl)cccc4Cl)ccc32)CC1 (single isomer, unassigned) [Compound 3b]", "≤ 10 nM"],
  ["O=C(O)C1CCN(C2CCc3cc(CCc4cccc(Cl)c4)ccc32)CC1 (single isomer, unassigned) [Compound 27a]", "≤ 10 nM"],
  ["O=C(O)C1CCN(C2CCc3cc(CCc4c(F)cccc4F)ccc32)CC1 (single isomer, unassigned) [Compound 28b]", "10 to 100 nM"],
  ["O=C(O)C1CC2(C1)CN(C1CCc3cc(CCc4c(Cl)cccc4Cl)ccc31)C2 (stereo not shown)", "10 to 100 nM"],
  ["O=C(O)C1CCN(C2CCc3cc(CCc4c(F)cccc4F)ccc32)CC1 (single isomer, unassigned) [Compound 28a]", "100 to 1000 nM"],
  ["O=C(O)C1CCN(C2CCc3cc(CCc4ccccc4Cl)ccc32)CC1 (single isomer, unassigned) [Compound 25b]", "100 to 1000 nM"],
  ["O=C(O)C1CCN(C2CCc3cc(-c4ccc5c(c4)OCC5)ccc32)CC1 (single isomer, unassigned)", "100 to 1000 nM"],
  ["O=C(O)C1CN(C2CCc3cc(C#Cc4cc(F)ccc4F)ccc32)C1 (single isomer, unassigned)", "≤ 10 nM"],
  ["O=C(O)C1CCN(C2CCc3cc(C#Cc4cccc(F)c4)ccc32)CC12CC2 (stereo not shown)", "10 to 100 nM"],
  ["O=C(O)C1CC2(C1)CN(C1CCc3cc(C#Cc4c(Cl)cccc4Cl)ccc31)C2 (stereo not shown)", "10 to 100 nM"],
  ["O=C(O)[C@@H]1CCN(C2CCc3cc(C#Cc4cccc(F)c4)ccc32)C1 (single isomer, unassigned) [Compound 14a]", "≤ 10 nM"],
  ["O=C(O)[C@@H]1CCN(C2CCc3cc(-c4ccc(C5CC5)c(F)c4)ccc32)C1 (single isomer, unassigned) [Compound 36b]", "≤ 10 nM"],
  ["O=C(O)C1CCN(C2CCc3cc(C#Cc4ccccc4F)ccc32)CC1 (single isomer, unassigned) [Compound 6b]", "≤ 10 nM"],
  ["O=C(O)C1CN(C2CCc3cc(-c4ccc(C5CC5)c(Cl)c4)ccc32)C1 (single isomer, unassigned) [Compound 30b]", "≤ 10 nM"],
  ["O=C(O)[C@H]1CCN(C2CCc3cc(-c4ccc(C5CC5)c(Cl)c4)ccc32)C1 (single isomer, unassigned) [Compound 35b]", "10 to 100 nM"]
]}

###

# TARGET SYSTEM: S1P5 (Homo sapiens)
# PROTOCOL TEXT: [35S]-GTPγS functional binding assay on CHO-S1P5 membranes
# RUN PARAMETERS: membranes of CHO cells expressing recombinant S1P5 receptors; measure of S1P5 agonism
REPORTED PROPERTY: EC50

{"columns": ["MOLECULE", "REPORTED PROPERTY", "RESULT"],
 "data": [
  ["O=C(O)[C@@H]1CCN(C2CCc3cc(C#Cc4cccc(F)c4)ccc32)C1 (single isomer, unassigned) [Compound 14b]", "EC50", "≤ 10 nM"],
  ["O=C(O)C1(F)CCN(C2CCc3cc(C#Cc4c(Cl)cccc4Cl)ccc32)CC1 (single isomer, unassigned) [Compound 3a]", "EC50", "≤ 10 nM"],
  ["O=C(O)C1CN(C2CCc3cc(-c4ccc(C5CC5)c(F)c4)ccc32)C1 (single isomer, unassigned) [Compound 31a]", "EC50", "≤ 10 nM"],
  ["CC(C)c1ccc(-c2ccc3c(c2)CCC3N2CCC(C(=O)O)CC2)cc1Cl (stereo not shown)", "EC50", "≤ 10 nM"],
  ["O=C(O)[C@@H]1CCCN(C2CCc3cc(C#Cc4cccc(F)c4)ccc32)C1 (single isomer, unassigned) [Compound 7b]", "EC50", "100 to 1000 nM"],
  ["O=C(O)C1CCN(C2CCc3cc(CCc4ccccc4Cl)ccc32)CC1 (single isomer, unassigned) [Compound 25a]", "EC50", "10 to 100 nM"],
  ["O=C(O)[C@H]1CCCCN1C1CCc2cc(C#Cc3cccc(F)c3)ccc21 (single isomer, unassigned) [Compound 9a]", "EC50", "1000 to 10000 nM"]
]}

Where do the numbers come from? From patent US12624003B2.
